target: DNA topoisomerase II (Homo sapiens) (UniProt P11388+Q02880); assay: Compound tested for ability to form a cellular covalent topoisomerase II-DNA complex.; format: functional
Mark not satisfied for Protein-DNA complex formation values under 60%, and satisfied for everything at or above.

Smiles string | Assayed target | Class label
COc1cc([C@@H]2c3cc4c(cc3[C@@H](NC(=O)c3ccc([N+](=O)[O-])cc3)[C@H]3COC(=O)[C@H]23)OCO4)cc(OC)c1O | DNA topoisomerase II (Homo sapiens) (UniProt P11388+Q02880) | satisfied
COc1cc([C@@H]2c3cc4c(cc3[C@@H](NCc3ccccc3N)[C@H]3COC(=O)[C@H]23)OCO4)cc(OC)c1O | DNA topoisomerase II (Homo sapiens) (UniProt P11388+Q02880) | satisfied
COc1cc([C@@H]2c3cc4c(cc3[C@@H](NC(=O)c3ccccc3F)[C@H]3COC(=O)[C@H]23)OCO4)cc(OC)c1O | DNA topoisomerase II (Homo sapiens) (UniProt P11388+Q02880) | satisfied
COc1cc([C@@H]2c3cc4c(cc3[C@@H](Nc3cccc(Br)c3)[C@H]3COC(=O)[C@H]23)OCO4)cc(OC)c1O | DNA topoisomerase II (Homo sapiens) (UniProt P11388+Q02880) | satisfied
COc1cc([C@@H]2c3cc4c(cc3[C@@H](NC(=O)c3cccc(N)c3)[C@H]3COC(=O)[C@H]23)OCO4)cc(OC)c1O | DNA topoisomerase II (Homo sapiens) (UniProt P11388+Q02880) | satisfied
COc1cc([C@@H]2c3cc4c(cc3[C@H](NCCO)[C@H]3COC(=O)[C@H]23)OCO4)cc(OC)c1O | DNA topoisomerase II (Homo sapiens) (UniProt P11388+Q02880) | not satisfied
COc1cc([C@@H]2c3cc4c(cc3[C@@H](Sc3ccc(O)cc3)[C@H]3COC(=O)[C@H]23)OCO4)cc(OC)c1O | DNA topoisomerase II (Homo sapiens) (UniProt P11388+Q02880) | not satisfied
COc1cc([C@@H]2c3cc4c(cc3[C@@H](N[C@@H](C)CO)[C@H]3COC(=O)[C@H]23)OCO4)cc(OC)c1O | DNA topoisomerase II (Homo sapiens) (UniProt P11388+Q02880) | satisfied
COc1cc([C@@H]2c3cc4c(cc3[C@@H](NC[C@H](C)O)[C@H]3COC(=O)[C@H]23)OCO4)cc(OC)c1O | DNA topoisomerase II (Homo sapiens) (UniProt P11388+Q02880) | satisfied
COc1cc([C@@H]2c3cc4c(cc3[C@@H](Nc3ccccc3Cl)[C@H]3COC(=O)[C@H]23)OCO4)cc(OC)c1O | DNA topoisomerase II (Homo sapiens) (UniProt P11388+Q02880) | not satisfied
COc1cc([C@@H]2c3cc4c(cc3[C@@H](N)[C@H]3COC(=O)[C@H]23)OCO4)cc(OC)c1O | DNA topoisomerase II (Homo sapiens) (UniProt P11388+Q02880) | not satisfied
COCCN[C@@H]1c2cc3c(cc2[C@@H](c2cc(OC)c(O)c(OC)c2)[C@H]2C(=O)OC[C@@H]21)OCO3 | DNA topoisomerase II (Homo sapiens) (UniProt P11388+Q02880) | satisfied
COc1cc([C@@H]2c3cc4c(cc3[C@@H](Nc3cnc5ccccc5c3)[C@H]3COC(=O)[C@H]23)OCO4)cc(OC)c1O | DNA topoisomerase II (Homo sapiens) (UniProt P11388+Q02880) | satisfied
COc1cccc(N[C@@H]2c3cc4c(cc3[C@@H](c3cc(OC)c(O)c(OC)c3)[C@H]3C(=O)OC[C@@H]32)OCO4)c1 | DNA topoisomerase II (Homo sapiens) (UniProt P11388+Q02880) | satisfied
COc1cc([C@@H]2c3cc4c(cc3[C@@H](NC(=O)c3cccc([N+](=O)[O-])c3)[C@H]3COC(=O)[C@H]23)OCO4)cc(OC)c1O | DNA topoisomerase II (Homo sapiens) (UniProt P11388+Q02880) | satisfied
